# TARGET OR SYSTEM: Recombinant human GST-tagged Kat6b protein (431-end)
# ASSAY PROCEDURE: Kat6b activity assay (TR-FRET, acetylation of biotinylated Histone-H4-derived peptide)
# DETAILS: 30 mins at 22° C., read-out: KAT6B activity assay IC50 [mol/l] (arithmetic mean)
pIC50: −log10 of the molar value.
MEASURED ATTRIBUTE: pIC50

CC(C)Oc1ccccc1S(=O)(=O)NC(=O)c1cc2ccc(N(C)C)cc2o1 [Example 224] : 7.12
CCCCCOc1ccccc1S(=O)(=O)NC(=O)c1cc2ccc(N(C)C)cc2o1 : 6.45
CCCOc1ccccc1S(=O)(=O)NC(=O)c1cc2c(F)cc(N(C)C)cc2o1 : 7.72

[a] CCS(=O)(=O)NC(=O)c1cc2ccc(N(C)C)cc2o1
[b] CCOc1ccccc1S(=O)(=O)NC(=O)c1cc2c(C(F)(F)F)cc(N(C)C)cc2o1
Task item: Please indicate which entry, a or b , has the lower recorded pIC50 value. Use the label to indicate which entry you chose.
Reply: a
(a: 5.01, b: 7.83)

###

# TARGET OR SYSTEM: Recombinant human His-tagged Kat6a protein (amino acids 194-810) (Homo sapiens (Human))
# Sequence (Q92794 194-810): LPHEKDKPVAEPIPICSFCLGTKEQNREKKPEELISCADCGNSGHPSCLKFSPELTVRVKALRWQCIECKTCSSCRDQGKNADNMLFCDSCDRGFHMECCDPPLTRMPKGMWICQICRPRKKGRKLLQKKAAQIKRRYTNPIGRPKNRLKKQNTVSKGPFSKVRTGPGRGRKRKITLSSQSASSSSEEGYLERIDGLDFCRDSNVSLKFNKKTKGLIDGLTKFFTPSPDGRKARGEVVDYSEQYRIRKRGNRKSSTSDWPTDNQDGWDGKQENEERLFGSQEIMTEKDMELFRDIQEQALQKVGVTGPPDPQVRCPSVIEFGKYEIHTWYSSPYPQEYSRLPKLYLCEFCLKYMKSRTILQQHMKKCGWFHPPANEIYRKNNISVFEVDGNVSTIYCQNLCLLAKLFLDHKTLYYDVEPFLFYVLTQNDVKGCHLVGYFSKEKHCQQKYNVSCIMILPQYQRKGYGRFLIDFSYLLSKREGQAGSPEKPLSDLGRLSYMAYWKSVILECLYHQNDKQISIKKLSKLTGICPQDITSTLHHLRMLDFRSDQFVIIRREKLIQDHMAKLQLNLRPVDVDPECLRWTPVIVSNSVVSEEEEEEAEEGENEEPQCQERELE
# ASSAY PROCEDURE: Kat6a activity assay (TR-FRET, acetylation of biotinylated Histone-H4-derived peptide)
# DETAILS: 60 mins at 22° C., read-out: KAT6A-DPF/HAT domain IC50 [mol/l] (arithmetic mean)
pIC50: −log10 of the molar value.
MEASURED ATTRIBUTE: pIC50

Examples with answers:
CN(C)c1ccc2cc(C(=O)N[S@SP1](=O)(=O)c3cccc4ccccc34)oc2c1 [Example 20] : 6.98
CCOc1cccc(-c2cccc(Cl)c2)c1S(=O)(=O)NC(=O)c1cc2ccc(N(C)C)cc2o1 [Example 25] : 7.51
CC(C)c1ccc(C(C)C)c(S(=O)(=O)NC(=O)c2cc3ccc(N(C)C)cc3o2)c1 [Example 162] : 6.44
CN(C)c1ccc2cc(C(=O)NS(=O)(=O)c3ccccc3OC(C)(C)C)oc2c1 [Example 68] : 7.16
Cc1ccc2cccc(S(=O)(=O)NC(=O)c3cc4c(C(F)(F)F)cc(N(C)C)cc4o3)c2n1 [Example 196] : 8.83

[a] CC(C)Oc1cccc(Cl)c1S(=O)(=O)NC(=O)c1cc2ccc(N(C)C)cc2o1 [Example 89]
[b] CCCCN(CCCC)c1ccc2cc(C(=O)NS(=O)(=O)c3ccccc3-c3ccccc3)oc2c1 [Example 41]
Task item: Given the listed records, identify the one among a and b with higher pIC50. Use the label to indicate which entry you chose.
Reply: a
(a: 6.88, b: 5.64)

###

# Test system: ZR-75-1 cells
# ASSAY PROCEDURE: Proliferation assay ZR-75-1 (Alamar Blue, 144 h)
# Format: cell-based
# DETAILS: Homo sapiens, ZR-75-1, 144 h, arithmetic mean, read-out: ZR75-1 proliferation assay, EC50 [M] (arithmetic mean)
# Protocol: Proliferation Assays for Compound Characterization For compound characterization cell survival assays were routinely run in two cell lines. […] 24 hours later, cells were treated with compounds (stock solution, 10 mM in DMSO) using the HP D300 Digital Dispenser in a concentration range of 2.0×10E-5 M to 2.0×10E-9 M in a single-dot curve with 9 dilutions and a DMSO concentration of 0.2%. […] Fluorescence was measured at 590 nm wavelength with a Tecan Spark or Victor X3 MTP-Reader (PerkinElmer).
# EC50 annotations
Lab book: enter the figure in M, no units written.

Examples with answers:
CN(C)c1ccc2cc(C(=O)NS(=O)(=O)c3ccc(N)c4cccnc34)oc2c1 [Example 166] : 1.5e-07
CCCOc1cccc(CC)c1S(=O)(=O)NC(=O)c1cc2ccc(N(C)C)cc2o1 [Example 119] : 6.98e-07

Task item: Observed EC50 on ZR-75-1 cells for CN(C)c1ccc2cc(C(=O)NS(=O)(=O)c3cc(C(C)(C)C)ccc3OCC(F)(F)F)oc2c1 [Example 181] , please.
Reply: 9.93e-08

###

# Test system: ZR-75-1 cells
# ASSAY PROCEDURE: Proliferation assay ZR-75-1 (Alamar Blue, 144 h)
# Type: cell-based
# DETAILS: Homo sapiens, ZR-75-1, 144 h, arithmetic mean, read-out: ZR75-1 proliferation assay, EC50 [M] (arithmetic mean)
# Description: Proliferation Assays for Compound Characterization For compound characterization cell survival assays were routinely run in two cell lines. […] 24 hours later, cells were treated with compounds (stock solution, 10 mM in DMSO) using the HP D300 Digital Dispenser in a concentration range of 2.0×10E-5 M to 2.0×10E-9 M in a single-dot curve with 9 dilutions and a DMSO concentration of 0.2%. […] Fluorescence was measured at 590 nm wavelength with a Tecan Spark or Victor X3 MTP-Reader (PerkinElmer).
MEASURED ATTRIBUTE: EC50 (M)
Lab book: enter the figure in M, no units written.

Examples with answers:
CN(C)c1cc(C(F)(F)F)c2cc(C(=O)NS(=O)(=O)c3ccccc3-c3ccccc3)oc2c1 : 6.55e-06
CCOc1ccc(I)cc1S(=O)(=O)NC(=O)c1cc2ccc(N(C)C)cc2o1 : 2.79e-06
CN(C)c1ccc2cc(C(=O)NS(=O)(=O)c3c(OCc4ccccc4)cccc3OC3CCC3)oc2c1 : 3.84e-07
CCOc1ccc(C(C)C)cc1S(=O)(=O)NC(=O)c1cc2c(F)cc(N(C)C)cc2o1 : 4.49e-08
CN(C)c1ccc2cc(C(=O)NS(=O)(=O)c3ccccc3OCCOCCOCCOCCNc3ccc([N+](=O)[O-])c4nonc34)oc2c1 : 1.24e-05
CC(C)Oc1ccccc1S(=O)(=O)NC(=O)c1cc2cc(Br)c(N(C)C)cc2o1 : 1.83e-05

Task item: Entry CN(C)c1cc(F)c2cc(C(=O)NS(=O)(=O)c3ccccc3OC3CC3)oc2c1 : reported EC50 = ?
Reply: 7.12e-08

###

# TARGET OR SYSTEM: Recombinant human GST-tagged Kat6b protein (431-end)
# ASSAY PROCEDURE: Kat6b activity assay (TR-FRET, acetylation of biotinylated Histone-H4-derived peptide)
# DETAILS: 30 mins at 22° C., read-out: KAT6B activity assay IC50 [mol/l] (arithmetic mean)
pIC50: −log10 of the molar value.
MEASURED ATTRIBUTE: pIC50

COc1ccccc1S(=O)(=O)NC(=O)c1cc2ccc(N(C)C)cc2o1 : 6.82
CN(C)c1cc(F)c2cc(C(=O)NS(=O)(=O)c3ccccc3-c3ccccc3)oc2c1 : 7.74

[I] Cc1ccc2cccc(S(=O)(=O)NC(=O)c3cc4ccc(N(C)C)cc4o3)c2n1 [Example 21]
[II] CN(C)c1ccc2cc(C(=O)NS(=O)(=O)c3ccccc3OCC(F)(F)F)oc2c1
[III] Nc1ccc2cc(C(=O)NS(=O)(=O)c3ccccc3-c3ccccc3)oc2c1
[IV] CCOc1ccc(I)cc1S(=O)(=O)NC(=O)c1cc2ccc(N(C)C)cc2o1
[V] CN(C)c1ccc2cc(C(=O)NS(=O)(=O)c3cc(C(C)(C)C)ccc3OC3CCC3)oc2c1
Task item: Ranking field: pIC50; order: falling. Answer format: list of labels, ordered as asked.
Reply: V, I, IV, II, III
(V: 7.92, I: 7.57, IV: 7.06, II: 6.64, III: 5.44)

###

# TARGET OR SYSTEM: Recombinant human His-tagged Kat6a protein (amino acids 194-810) (Homo sapiens (Human))
# ASSAY PROCEDURE: Kat6a activity assay (TR-FRET, acetylation of biotinylated Histone-H4-derived peptide)
# Type: biochemical
# DETAILS: 60 mins at 22° C., read-out: KAT6A-DPF/HAT domain IC50 [mol/l] (arithmetic mean)
MEASURED ATTRIBUTE: IC50 (nM)

[P] COCCN(C)c1ccc2cc(C(=O)NS(=O)(=O)c3cccc4ccc(C)nc34)oc2c1
[Q] CCOc1ccc(C(C)CC)cc1S(=O)(=O)NC(=O)c1cc2ccc(N(C)C)cc2o1 (racemic)
[R] CN(C)c1ccc2cc(C(=O)NS(=O)(=O)c3cccc4c3OCC4)oc2c1
[S] Cc1ccc2cccc(S(=O)(=O)NC(=O)c3cc4ccc(N(C)C)cc4o3)c2n1 [Example 21]
Task item: Sort the listed compounds above so the one with the largest IC50 comes first and the smallest comes last. Answer format: list of labels, ordered as asked.
Reply: P, R, S, Q
(P: 485 nM, R: 137 nM, S: 23.4 nM, Q: 4.4 nM)

[A] CN1Cc2cccc(S(=O)(=O)NC(=O)c3cc4ccc(N(C)C)cc4o3)c2C1=O
[B] CN(C)c1cc2oc(C(=O)NS(=O)(=O)c3ccccc3-c3ccccc3)cc2cc1Br
[C] Cc1cccc(Nc2ccncc2S(=O)(=O)NC(=O)c2cc3ccc(N(C)C)cc3o2)c1
[D] CN(C)c1ccc2cc(C(=O)NS(=O)(=O)c3ccccc3-c3ccccc3)oc2c1C(F)(F)F
Task item: Ascending by IC50, please. Answer format: list of labels, ordered as asked.
Reply: A, C, D, B
(A: 150 nM, C: 234 nM, D: 1970 nM, B: 5540 nM)
